Where do the numbers come from? From patent US20210403506A1.

Catalogue of EC50 (µM), activation of Tango CMKLR1-bla U2OS cells values
Assayed system: T1, human Chemokine like receptor 1 (human, UniProt Q99788 1-373)
T1 sequence (looked up): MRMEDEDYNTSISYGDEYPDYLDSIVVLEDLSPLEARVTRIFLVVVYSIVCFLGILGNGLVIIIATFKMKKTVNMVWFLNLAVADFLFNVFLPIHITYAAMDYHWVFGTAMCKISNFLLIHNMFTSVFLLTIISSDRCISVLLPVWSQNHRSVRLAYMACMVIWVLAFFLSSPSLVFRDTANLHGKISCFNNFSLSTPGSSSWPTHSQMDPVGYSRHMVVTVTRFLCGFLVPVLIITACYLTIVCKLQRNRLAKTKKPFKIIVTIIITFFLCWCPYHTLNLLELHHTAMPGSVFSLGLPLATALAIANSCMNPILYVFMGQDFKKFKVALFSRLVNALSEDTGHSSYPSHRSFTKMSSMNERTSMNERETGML
Method: cell-based or functional assay
Square brackets hold non-standard residues; d marks the D form. Ends that are not written are not given here. * marks the point of attachment. Diphenylacetyl = O=C(C(c1ccccc1)c1ccccc1)*; Tic = O=C(O)[C@@H]1Cc2ccccc2CN1; NMeL = CN[C@@H](CC(C)C)C(=O)O; dNMeS = CN[C@H](CO)C(=O)O; hSer = N[C@@H](CCO)C(=O)O; Nva = CCC[C@H](N)C(=O)O
Give just the number in µM; leave the unit off.

[dY]FLP[dNMeS]QF[dA][Tic]S-OH [YW-106]: 24

In: Would you mind telling me what EC50 (µM), activation of Tango CMKLR1-bla U2OS cells value was observed for [dY]F[NMeL]P[dS]QF[dA][Tic][hSer]-OH (N-terminus assumed; SMILES CC(C)C[C@@H](C(=O)N1CCC[C@H]1C(=O)N[C@H](CO)C(=O)N[C@@H](CCC(N)=O)C(=O)N[C@@H](Cc1ccccc1)C(=O)N[C@H](C)C(=O)N1Cc2ccccc2C[C@H]1C(=O)N[C@@H](CCO)C(=O)O)N(C)C(=O)[C@H](Cc1ccccc1)NC(=O)[C@H](N)Cc1ccc(O)cc1) [YW-171] ?
Out: 0.029

In: Next binder up: [dY]F[Nva]P[dS]QF[dA][Tic]S [YW-196]
Out: 0.039

In: Follow-up entry: Diphenylacetyl-[dY]FLP[dS]QF[dA][Tic]S-OH (SMILES CC(C)C[C@H](NC(=O)[C@H](Cc1ccccc1)NC(=O)[C@@H](Cc1ccc(O)cc1)NC(=O)C(c1ccccc1)c1ccccc1)C(=O)N1CCC[C@H]1C(=O)N[C@H](CO)C(=O)N[C@@H](CCC(N)=O)C(=O)N[C@@H](Cc1ccccc1)C(=O)N[C@H](C)C(=O)N1Cc2ccccc2C[C@H]1C(=O)N[C@@H](CO)C(=O)O) [YW-78]
Out: 0.026
